Where these numbers come from: patent US12252531B2

- system: Matrix-associated proTGFβ1 (hLTBP1, hLTBP3)
- methodNotes: MSD-SET, average over matrix-associated complexes
- Type: binding, human
- testSettings: average of (B) and (C), read-out: (D) ECM AVRG
metric: Kd (nM)

1. Ab32: proTGFβ1 antibody; VH SEQ ID NO: 140, VL SEQ ID NO: 15 (antibody, V domains shown) VH: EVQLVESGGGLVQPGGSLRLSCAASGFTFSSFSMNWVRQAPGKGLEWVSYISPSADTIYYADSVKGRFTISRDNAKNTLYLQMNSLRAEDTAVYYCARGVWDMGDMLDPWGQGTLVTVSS VL: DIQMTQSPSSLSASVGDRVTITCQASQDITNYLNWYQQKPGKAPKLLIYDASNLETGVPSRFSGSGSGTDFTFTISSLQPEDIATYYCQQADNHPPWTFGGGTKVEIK	0.032
2. Ab30: proTGFβ1 antibody; VH SEQ ID NO: 138, VL SEQ ID NO: 15 (antibody, V domains shown) VH: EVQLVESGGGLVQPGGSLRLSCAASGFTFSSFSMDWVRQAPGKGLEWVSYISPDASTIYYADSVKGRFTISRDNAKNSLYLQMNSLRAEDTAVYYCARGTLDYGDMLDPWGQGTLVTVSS VL: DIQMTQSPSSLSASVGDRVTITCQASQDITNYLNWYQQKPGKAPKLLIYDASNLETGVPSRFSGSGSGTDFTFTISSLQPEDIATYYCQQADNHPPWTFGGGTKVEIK	0.029
